Data provenance is ChEMBL document CHEMBL4616701.

- measuredTarget: Histone-lysine N-methyltransferase EZH2 (Homo sapiens)
- experimentalProtocol: Binding affinity to N-terminal FLAG-tagged EZH2 in PRC2 complex (unknown origin) expressed in baculovirus infected Sf9 cells assessed as residence time at 21 nM pre-equilibrated with enzyme followed by incubation with bio-EZH2i and measured after 3 to 6 mins by TR-FRET assay
- Sequence (Q15910 whole entry, looked up): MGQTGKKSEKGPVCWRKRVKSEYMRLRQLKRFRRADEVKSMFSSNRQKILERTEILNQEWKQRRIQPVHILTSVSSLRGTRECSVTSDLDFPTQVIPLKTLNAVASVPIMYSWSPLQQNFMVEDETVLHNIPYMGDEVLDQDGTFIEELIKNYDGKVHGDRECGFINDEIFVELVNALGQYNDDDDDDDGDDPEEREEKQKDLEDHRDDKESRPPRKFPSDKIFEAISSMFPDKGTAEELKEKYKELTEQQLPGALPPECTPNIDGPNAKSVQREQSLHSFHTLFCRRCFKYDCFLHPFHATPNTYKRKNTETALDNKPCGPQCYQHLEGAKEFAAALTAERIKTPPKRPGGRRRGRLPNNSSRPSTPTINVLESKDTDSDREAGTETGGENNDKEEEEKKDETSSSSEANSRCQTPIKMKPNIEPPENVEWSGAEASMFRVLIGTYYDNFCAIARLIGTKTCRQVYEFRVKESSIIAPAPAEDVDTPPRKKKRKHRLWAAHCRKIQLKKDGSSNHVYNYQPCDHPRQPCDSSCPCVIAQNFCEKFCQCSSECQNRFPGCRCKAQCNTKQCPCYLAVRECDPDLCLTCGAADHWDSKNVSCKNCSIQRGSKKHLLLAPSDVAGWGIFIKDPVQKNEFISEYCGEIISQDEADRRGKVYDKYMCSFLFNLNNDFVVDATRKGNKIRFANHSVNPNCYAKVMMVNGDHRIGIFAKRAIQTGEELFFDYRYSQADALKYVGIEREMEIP
observationType: log10 TIME (log10 of the value in h)

- compoundString: "CSc1cc(C)[nH]c(=O)c1CNC(=O)c1c(C)n([C@H](C)[C@H]2OC[C@H](N(C)C)CO2)c2ccccc12"
  measuredTarget: "Histone-lysine N-methyltransferase EZH2 (Homo sapiens)"
  observationType: "log10 TIME"
  observed: 1.61
- compoundString: "CSc1cc(C)[nH]c(=O)c1CNC(=O)c1c(C)n([C@H](C)[C@H]2CC[C@H](N3CC(OC(F)F)C3)CC2)c2ccccc12"
  measuredTarget: "Histone-lysine N-methyltransferase EZH2 (Homo sapiens)"
  observationType: "log10 TIME"
  observed: 2.32
- compoundString: "CSc1cc(C)[nH]c(=O)c1CNC(=O)c1c(C)n([C@H](C)[C@H]2CC[C@H](N3CC(OC4CC4)C3)CC2)c2ncc(F)cc12"
  measuredTarget: "Histone-lysine N-methyltransferase EZH2 (Homo sapiens)"
  observationType: "log10 TIME"
  observed: 1.82
- compoundString: "CSc1cc(C)[nH]c(=O)c1CNC(=O)c1c(C)n([C@H](C)C2CCN(C3COC3)CC2)c2ccccc12"
  measuredTarget: "Histone-lysine N-methyltransferase EZH2 (Homo sapiens)"
  observationType: "log10 TIME"
  observed: 1.63
- compoundString: "COc1cc(C)[nH]c(=O)c1CNC(=O)c1c(C)n([C@H](C)C2CCN(CC(F)(F)F)CC2)c2ccccc12"
  measuredTarget: "Histone-lysine N-methyltransferase EZH2 (Homo sapiens)"
  observationType: "log10 TIME"
  observed: 0.65
- compoundString: "CSc1cc(C)[nH]c(=O)c1CNC(=O)c1c(C)n([C@H](C)[C@H]2CC[C@@H](N3CC(F)(F)C3)CC2)c2ccccc12"
  measuredTarget: "Histone-lysine N-methyltransferase EZH2 (Homo sapiens)"
  observationType: "log10 TIME"
  observed: 1.46

---

The reader will find reported pEC50 values listed item by item below.
- measuredTarget: UniProt:Q15910
- experimentalProtocol: Inhibition of EZH2 in human HeLa cells assessed as inhibition of trimethylation of H3K27 after 72 hrs by AlphaLISA assay
- Assay type: cell-based
- Sequence (Q15910 whole entry): as the sequence (Q15910 whole entry, looked up) above
pEC50: −log10 of the molar value.
observationType: pEC50

- compoundString: "CSc1cc(C)[nH]c(=O)c1CNC(=O)c1c(C)n([C@H](C)[C@H]2CC[C@H](N3CC(OC4CC4)C3)CC2)c2ncccc12"
  observed: 8.74
- compoundString: "CSc1cc(C)[nH]c(=O)c1CNC(=O)c1c(C)n([C@H](C)[C@H]2CC[C@H](N3CC(OC(F)(F)F)C3)CC2)c2ccccc12"
  observed: 8.74
- compoundString: "CSc1cc(C)[nH]c(=O)c1CNC(=O)c1c(C)n([C@H](C)C2CCN(CC(F)(F)F)CC2)c2ccccc12"
  observed: 8.60

---

The reader will find reported pEC50 values listed item by item below.
- measuredTarget: Histone-lysine N-methyltransferase EZH2 (Homo sapiens, UniProt Q15910)
- experimentalProtocol: Inhibition of EZH2 in human HeLa cells assessed as inhibition of trimethylation of H3K27 after 72 hrs by AlphaLISA assay
pEC50: −log10 of the molar value.

- compound: "Cc1cc(Cl)c(CNC(=O)c2c(C)n([C@H](C)C3CCN(CC(F)(F)F)CC3)c3ccccc23)c(=O)[nH]1"
  measuredTarget: "Histone-lysine N-methyltransferase EZH2 (Homo sapiens, UniProt Q15910)"
  pEC50: "> 7.00"
- compound: "Cc1cc([S+](C)[O-])c(CNC(=O)c2c(C)n([C@H](C)C3CCN(CC(F)(F)F)CC3)c3ccccc23)c(=O)[nH]1 (stereo not given in full)"
  measuredTarget: "Histone-lysine N-methyltransferase EZH2 (Homo sapiens, UniProt Q15910)"
  pEC50: "< 6.52"
- compound: "Cc1cc(Cl)[nH]c(=O)c1CNC(=O)c1c(C)n([C@H](C)C2CCN(CC(F)(F)F)CC2)c2ccccc12"
  measuredTarget: "Histone-lysine N-methyltransferase EZH2 (Homo sapiens, UniProt Q15910)"
  pEC50: "< 6.00"
- compound: "COc1cc(C)c(CNC(=O)c2c(C)n([C@H](C)C3CCN(CC(F)(F)F)CC3)c3ccccc23)c(=O)[nH]1"
  measuredTarget: "Histone-lysine N-methyltransferase EZH2 (Homo sapiens, UniProt Q15910)"
  pEC50: "< 6.00"
- compound: "Cc1cc(S(C)(=O)=O)c(CNC(=O)c2c(C)n([C@H](C)C3CCN(CC(F)(F)F)CC3)c3ccccc23)c(=O)[nH]1"
  measuredTarget: "Histone-lysine N-methyltransferase EZH2 (Homo sapiens, UniProt Q15910)"
  pEC50: "< 6.52"
